- procedure_text: NCI Yeast Anticancer Drug Screen. Data for the mec2-1 strain (AID 157)
- condition_context: S. cerevisiae mec2-1 strain, at 100.0 µM, hits give high values
About 79,000 compounds went through this panel and 15% of them were active in at least one assay; those are over-represented in the sample as a whole. Active and inactive are the calls of the source. Rule as the data show it: active = growth inhibition above about 70%; inactive = the rest.
assay_metric: growth inhibition

Illustrative cases are given below, each with its answer.
N#C/C(=C1C=C(Br)/C(=N\O)C=C\1Cl)c1cccc2ccccc12
94% (active)
CN(N=O)C(=O)N[C@@H](C=O)[C@@H](O)[C@H](O)[C@H](O)CO
-7% (inactive)

Name the recorded growth inhibition of the item CNc1nc(C)nc2c1cnn2-c1ccc([N+](=O)[O-])cc1 in your answer.
-2% (inactive)

Name the recorded growth inhibition of the item O=NN(CCCl)C(=O)NC1CCCCC1 in your answer.
13% (inactive)

Name the recorded growth inhibition of the item CCOc1ccc(C(=O)CCC(=O)O)c(C)c1 in your answer.
15% (inactive)

Name the recorded growth inhibition of the item C/C=C/[P+](c1ccccc1)(c1ccccc1)c1ccccc1 in your answer.
91% (active)

Name the recorded growth inhibition of the item CCC(=O)N(c1ccccc1)C(C)CN1CCC(O)(c2cccc(C(F)(F)F)c2)CC1 (stereo not given) in your answer.
57% (inactive)

Name the recorded growth inhibition of the item Nc1ccc(S(=O)(=O)Nc2ccc(Nc3c4ccccc4nc4ccccc34)cc2)cc1 in your answer.
77% (active)

Name the recorded growth inhibition of the item Cc1c2cc[n+](CCN3CCCCC3)cc2c(C)c2c1[nH]c1ccc(O)cc12 in your answer.
98% (active)

Name the recorded growth inhibition of the item O=Nc1ccc(Nc2ccccc2)cc1 in your answer.
97% (active)

Name the recorded growth inhibition of the item CC1OC(OC2CCCc3c(O)c4c(c(O)c32)C(=O)c2ccccc2C4=O)CC(N)C1O (stereo not given) in your answer.
99% (active)

Name the recorded growth inhibition of the item CCN(CC)CC(O)C1CCC(c2ccccc2)CC1 (stereo not given) in your answer.
79% (active)

Name the recorded growth inhibition of the item CCC(c1ccc(O)cc1)C(CC)c1ccc(OCCN)cc1 (stereo not given) in your answer.
64% (inactive)

Name the recorded growth inhibition of the item CC(=O)N1C(=O)/C(=C\C(=O)c2ccc(Cl)cc2)c2ccccc21 in your answer.
91% (active)

Name the recorded growth inhibition of the item O=C(Nc1ccc2c(c1)Cc1c-2ccc([N+](=O)[O-])c1F)C(F)(F)F in your answer.
2% (inactive)
